system_under_test: T1, D. melanogaster Par-6 PDZ domain (residues 156-255) (D. melanogaster, UniProt O97111 156-255)
T1 sequence (looked up): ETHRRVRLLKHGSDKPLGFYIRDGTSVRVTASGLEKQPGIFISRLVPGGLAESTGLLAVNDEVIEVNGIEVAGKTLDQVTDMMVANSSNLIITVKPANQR
measurement_protocol: fluorescence polarisation
pKd: −log10 of the molar value.

binder	pKd
Ac-C(TMR)GYPKHREMAAD-NH2 [TMR-CGYPKHREMAAD]	4.82
